The reported measurements were obtained from patent US10287297B2.

# System: MCF7
Assay Readout: GI50 (µM)
Report only the number, with the unit µM understood.

Example entries and their recorded answers appear below.
# Compound, Experimental Target, Assay Readout, Experimental Result
measured = [
    ("CC1=C2[C@@H](CC1)[C@]1(C)O[C@@](C3CC3)(C[C@H]1OC(=O)CO)[C@H]2OC(=O)C=Cc1ccccc1", "MCF7", "GI50", 13),
    ("CC1=C2[C@@H](CC1)[C@]1(C)O[C@@](C3CCCCC3)(C[C@H]1OC(=O)CO)[C@H]2OC(=O)C=Cc1ccccc1", "MCF7", "GI50", 4.5),
    ("CC1=C2[C@@H](CC1)[C@]1(C)O[C@@](c3ccccc3)(C[C@H]1OC(=O)CO)[C@H]2OC(=O)C=Cc1ccccc1", "MCF7", "GI50", 10),
    ("CC1=C2[C@@H](CC1)[C@]1(C)O[C@@](C(C)C)(C[C@H]1OC(=O)[C@H](C)O)[C@H]2OC(=O)C=Cc1ccccc1", "MCF7", "GI50", 10),
    ("CC1=C2[C@@H](CC1)[C@]1(C)O[C@@](C(C)C)(C[C@H]1OC(=O)CO)[C@H]2OC(=O)/C=C/c1ccccc1", "MCF7", "GI50", 32),
]

Requested read-out: GI50. Entry: CC(=O)O[C@@H]1C[C@]2(C(C)C)O[C@@]1(C)[C@@H]1CCC(C)=C1[C@@H]2OC(=O)C=Cc1ccccc1
19

Moving on to the next compound: CC1=C2[C@@H](CC1)[C@]1(C)O[C@@](C(C)C)(C[C@H]1OC(=O)CO)[C@H]2OC(=O)C1CC1c1ccccc1 (stereo partly shown)
8.9
